# Tested on: lambsquarters
# Method notes: Test D pre-/postemergence herbicide test
# Type: in vivo, Chenopodium album
# Experimental parameters: Preemergence; 31 g ai/ha; scale 0 to 100 (0 no effect, 100 complete control)
# Text: […]
Overview of reported Plant response rating, Lambsquarters across a group of compounds:
Field format: numeric only.

>>> endpoint_value("O=C1NCC(c2ccc(F)c(C(F)(F)F)c2)C1C(=O)Nc1cccc(F)c1F (racemic)")
85
>>> endpoint_value("O=C1NC[C@H](c2cccc(C(F)(F)F)c2)[C@H]1C(=O)Nc1cccc(F)c1F")
50
>>> endpoint_value("O=C1NCC(c2ccc(F)c(F)c2)C1C(=O)Nc1ccccc1C(F)(F)F (racemic)")
0

Task item: Field request: Plant response rating, Lambsquarters | item: O=C1NCC(c2ccc(C(F)(F)F)cc2)C1C(=O)Nc1cccc(F)c1F (stereo not shown)
Reply: 85

====

# Tested on: waterhemp
# Method notes: Test C pre-/postemergence herbicide test
# Type: in vivo, Amaranthus rudis
# Experimental parameters: Preemergence, 62 g ai/ha; scale 0 to 100 (0 no effect, 100 complete control)
Measured quantity: Waterhemp plant response rating
Field format: numeric only.

Reference set, count: 4
>>> endpoint_value("O=C1NC[C@H](c2cccc(C(F)(F)F)c2)[C@H]1C(=O)Nc1cccc(F)c1F")
100
>>> endpoint_value("O=C1NCC(c2cccc(C(F)(F)F)c2)C1C(=O)Nc1ccc(F)c(F)c1F (centres unmarked)")
5
>>> endpoint_value("CN1CC(c2ccc(F)c(F)c2)C(C(=O)Nc2cccc(F)c2F)C1=O (centres unmarked)")
65
>>> endpoint_value("CN1CC(c2cccc(C(F)(F)F)c2)C(C(=O)Nc2cccc(F)c2F)C1=O (centres unmarked)")
65

// below: Waterhemp plant response rating requested for another molecule
Task item: Param readout = Waterhemp plant response rating; param system = waterhemp; param query = O=C1NCC(c2cccc(OC(F)F)c2)C1C(=O)Nc1cccc(F)c1F (centres unmarked) ; response: value
Reply: 5

====

# System: giant foxtail
# Method notes: Test A pre-/postemergence herbicide test
# Assay type: in vivo, Setaria faberii
# Experimental parameters: preemergence; 500 g ai/ha; 0 to 100 scale, 0 is no effect and 100 is complete control
Overview of reported Plant response rating, Foxtail, Giant across a group of molecules:
Field format: numeric only.

Reference set, count: 5
>>> endpoint_value("O=C1NCC(c2ccc(Cl)c(Cl)c2)C1C(=O)Nc1ccc(F)cc1F (racemic) [Compound 272]")
90
>>> endpoint_value("O=C1NCC(c2cnn(CC(F)(F)F)c2)C1C(=O)Nc1ccccc1C(F)(F)F (stereo not shown) [Compound 300]")
0
>>> endpoint_value("O=C1NCC(c2ccc(Cl)s2)C1C(=O)Nc1ccccc1F (stereo not shown) [Compound 292]")
60
>>> endpoint_value("O=C1NCC(c2ccc(OC(F)(F)F)cc2)C1C(=O)Nc1ccccc1F (racemic) [Compound 256]")
60
>>> endpoint_value("CN1CC(c2ccc(F)cc2)C(C(=O)Nc2ccccc2F)C1=O (stereo not shown) [Compound 270]")
90

// below: Plant response rating, Foxtail, Giant requested for another molecule
Task item: Field request: Plant response rating, Foxtail, Giant | item: O=C1NCC(c2cccc(OC(F)F)c2)C1C(=O)Nc1ccccc1Br (stereo not shown) [Compound 228]
Reply: 90

====

Overview of reported Plant response rating, Johnsongrass across a group of compounds:
# System: johnsongrass
# Method notes: Test C pre-/postemergence herbicide test
# Format: in vivo, Sorghum halepense
# Experimental parameters: Preemergence, 62 g ai/ha; scale 0 to 100
# From the text: […]

>>> endpoint_value("O=C1NCC(c2ccc(Cl)c(Cl)c2)C1C(=O)Nc1ccccc1F (racemic) [Compound 14]")
0

Task item: Field request: Plant response rating, Johnsongrass | item: O=C1NCC(c2ccc(F)c(Cl)c2)C1C(=O)Nc1ccccc1F (stereo not shown) [Compound 60]
Reply: 20

Task item: Could you do the same for O=C1NCC(c2ccc(C(F)(F)F)cc2)C1C(=O)Nc1ccccc1F (stereo not shown) [Compound 79] , please?
Reply: 0

Task item: Could you do the same for O=C1NCCC1C(=O)N(c1ccc(F)c(F)c1)c1ccccc1F (stereo not shown) [Compound 5] , please?
Reply: 0
